B1: MMP1 (parent)
chain: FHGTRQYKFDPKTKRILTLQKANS

Variants of: B1
Test: protein stability index of a GFP-peptide fusion (GPS, HEK-293T) (PSI 1-6); higher = more stable;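 also: lentivirally expressed fusions sorted by FACS into six bins by GFP to DsRed ratio, PSI derived from sequencing read proportions per bin multiplied by bin number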
Details: c terminus: a fixed tail appended
value_type: protein stability index
// no unit, no text: just the number

Take a look at these entries with their results.
Input line: Query: protein stability index; subject: `FHGTRQYKFDPKTKSILTLQKANS`
Output line: 1.91

Input line: Please give the measured protein stability index for this variant: `FHGTRQVKFDPKTKRILTLQKANS`
Output line: 2.27

Input line: Endpoint output: protein stability index of `FHGTRQYKFDPKTFRILTLQKANS` . Value?
Output line: 1.98

New cases:
Input line: So what does the record say about protein stability index for `FHGTRQYKFDPKTKRIYTLQKANS` ?
Output line: 1.95

Input line: Given the variant `FHGTRQYKFDPKTKRILTLQKLNS` , what is its reported protein stability index?
Output line: 1.52

Input line: Param item = `FHGTRQYKEDPKTKRILTLQKANS` ; retrieve measured protein stability index.
Output line: 1.76
